assay: ATG_CRE_CIS: Attagene CIS-FACTORIAL HepG2 Assay for human cAMP Responsive Element (CRE) binding protein 3 (AID 2282926)
study conditions: HepG2 CRE cis-reporter, Attagene multiplexed mRNA; actives raise or lower the signal
Calls of active or inactive are those of the source. Rule for the calls: active = hit-call score of the fitted dose curve at least 0.9, where 1 is the maximum; inactive = score below 0.9.
observation type: AC50

Observe how each entry below is paired with its result.
test_smiles=c1ccc(NNc2ccccc2)cc1 value_measured=inactive
test_smiles=OCCOCCO value_measured=inactive
test_smiles=CCCCCCCCOC(=O)c1ccc(C(=O)OCCCCCCCC)c(C(=O)OCCCCCCCC)c1 value_measured=inactive
test_smiles=Clc1ccc(Cl)c(Cl)c1 value_measured=inactive

query: Dear colleague, I am looking for the recorded AC50 of the following molecule: CN(C)[C@@H]1C(=O)C(C(N)=O)=C(O)[C@@]2(O)C(=O)C3=C(O)c4c(O)cccc4[C@@](C)(O)[C@H]3C[C@@H]12
result: inactive

query: Dear colleague, I am looking for the recorded AC50 of the following molecule: CS(=O)(=O)NC(=O)c1cc(Oc2ccc(C(F)(F)F)cc2Cl)ccc1[N+](=O)[O-]
result: inactive

query: Dear colleague, I am looking for the recorded AC50 of the following molecule: CC(C)(OOC(C)(C)c1ccccc1)c1ccccc1
result: 57.4 µM (active)

query: Dear colleague, I am looking for the recorded AC50 of the following molecule: CCCCCOC(=O)c1ccccc1C(=O)OCCCCC
result: inactive

query: Dear colleague, I am looking for the recorded AC50 of the following molecule: COC(=O)c1ccccc1N
result: inactive

query: Dear colleague, I am looking for the recorded AC50 of the following molecule: Cn1cc(-c2ccccc2)c(=O)c(-c2cccc(C(F)(F)F)c2)c1
result: 79.1 µM (active)

query: Dear colleague, I am looking for the recorded AC50 of the following molecule: Nc1cc(Cl)cc(C(=O)O)c1Cl
result: inactive

query: Dear colleague, I am looking for the recorded AC50 of the following molecule: O=C(Oc1ccc(Br)cc1)N1CCN2CCC1CC2
result: inactive

----------
assay: ACEA_AR_antagonist_AUC_viability: ACEA Biosciences xCELLigence Real-Time Cell Analysis on Androgen Receptor Antagonism for Viability (AID 2283776);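 note: 22Rv1 human prostate cancer cells growing on impedance electrode plates; area under impedance growth curve at 80 h after dosing as viability; hits lower the growth signal relative to DMSO meaning cytotoxicity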
Inconclusive results are not listed. Active and inactive are the calls of the source. Rule for the calls: active = hit-call score of the fitted dose curve at least 0.9, where 1 is the maximum; inconclusive = response in the unintended direction; inactive = score below 0.9.
# output must be one of 1 (active), -1 (inactive)

query: Hey, what did the test say about O=C(O)C1C2CCC(O2)C1C(=O)O (configuration not stated) ?
result: 1

query: Hey, what did the test say about Clc1ccc(C(c2ccc(Cl)cc2)C(Cl)Cl)cc1 ?
result: 1

query: Hey, what did the test say about CCCCOC(=O)c1ccccc1C(=O)OCc1ccccc1 ?
result: 1

query: Hey, what did the test say about Cc1cccc(N)c1N ?
result: -1

query: Hey, what did the test say about ClC1=C(Cl)[C@]2(Cl)[C@H]3[C@H]([C@@H]4C=C[C@H]3C4)[C@@]1(Cl)C2(Cl)Cl ?
result: 1

query: Hey, what did the test say about CCCCCOC(=O)c1ccccc1C(=O)OCCCCC ?
result: 1

query: Hey, what did the test say about OCCOCCO ?
result: -1

----------
Read-out: Bcl-2 (BAX) gene, BAX (gene 581)
assay: LTEA_HepaRG_BAX: Life Technologies and Expression Analysis (LTEA) Assay for Bcl-2 (BAX) gene using HepaRG (AID 2283470)
study conditions: mRNA level, 48 h; actives raise or lower the signal
Active and inactive are the calls of the source. How the source made its calls: active means hit-call score of the fitted dose curve at least 0.9, where 1 is the maximum; inactive means score below 0.9.
# output must be one of y = active, n = inactive

query: Hey, what did the test say about O=P(OCCCl)(OCCCl)OCCCl ?
result: y

query: Hey, what did the test say about [As]#[In] ?
result: n

query: Hey, what did the test say about CN(C)C(=O)Nc1ccc(Cl)cc1 ?
result: n

query: Hey, what did the test say about O=C(Nc1ccccc1)c1ccccc1I ?
result: n

query: Hey, what did the test say about CCC[CH2][Sn]([Cl])([CH2]CCC)[CH2]CCC ?
result: y

query: Hey, what did the test say about O=C(O)C1C2CCC(O2)C1C(=O)O (stereo not given) ?
result: n

query: Hey, what did the test say about c1ccc(C2CO2)cc1 (stereo not given) ?
result: n

query: Hey, what did the test say about Nc1ccc(Cl)cc1N ?
result: y

query: Hey, what did the test say about O=[N+]([O-])C(Br)(CO)CO ?
result: n

query: Hey, what did the test say about ClC1=C(Cl)C2(Cl)C3C(Cl)C=CC3C1(Cl)C2(Cl)Cl (stereo not given) ?
result: n

query: Hey, what did the test say about CS(=O)(=O)NC(=O)c1cc(Oc2ccc(C(F)(F)F)cc2Cl)ccc1[N+](=O)[O-] ?
result: n

query: Hey, what did the test say about c1ccc(N=Nc2ccccc2)cc1 ?
result: n

query: Hey, what did the test say about Clc1ccccc1Cl ?
result: n

query: Hey, what did the test say about Nc1ccc([N+](=O)[O-])cc1 ?
result: n

query: Hey, what did the test say about Nc1ccc(Cc2ccc(N)cc2)cc1 ?
result: n

query: Hey, what did the test say about CN(C)c1ccc(C(=O)c2ccc(N(C)C)cc2)cc1 ?
result: n

query: Hey, what did the test say about Cc1cc(N=Nc2ccccc2C)ccc1N ?
result: y

query: Hey, what did the test say about c1ccc(NNc2ccccc2)cc1 ?
result: n

query: Hey, what did the test say about Cc1cccc(N)c1N ?
result: n

query: Hey, what did the test say about O=Cc1ccco1 ?
result: n

query: Hey, what did the test say about C=CCc1ccc2c(c1)OCO2 ?
result: n

query: Hey, what did the test say about COC(=O)c1ccccc1N ?
result: n

query: Hey, what did the test say about Clc1ccc(C(c2ccc(Cl)cc2)C(Cl)(Cl)Cl)cc1 ?
result: n

query: Hey, what did the test say about Cc1ccc(N)c(N)c1 ?
result: n

query: Hey, what did the test say about Clc1ccc(Cl)c(Cl)c1 ?
result: n
